# System: Escherichia coli
# Measurement description: Inhibitory activity against accumulation of [14C]-labeled Linezolid within wild-type Escherichia coli K12 cells
# Format: functional, cell-based
# Experimental setup: K-12, K12
Quantity name: IC50 (µM)
A number alone suffices; assume µM.

Annotate the compound Clc1ccc(Cl)c(CCC2CCCNC2)c1 (stereo unspecified) with its measured IC50.
195

Annotate the compound F[C@H]1CCNC[C@@H]1CCCc1cc(Br)ccc1Cl with its measured IC50.
400

Annotate the compound FC(F)(F)c1cc(CCC2CCCNC2)cc(C(F)(F)F)c1 (stereo unspecified) with its measured IC50.
300

Annotate the compound Cl.FC1=C(Cc2cc(Br)ccc2Cl)CNCC1 with its measured IC50.
480
